// reported Emax per item
- Test target: human muscarinic M1 receptor (Homo sapiens)
- Sequence (P11229 whole entry): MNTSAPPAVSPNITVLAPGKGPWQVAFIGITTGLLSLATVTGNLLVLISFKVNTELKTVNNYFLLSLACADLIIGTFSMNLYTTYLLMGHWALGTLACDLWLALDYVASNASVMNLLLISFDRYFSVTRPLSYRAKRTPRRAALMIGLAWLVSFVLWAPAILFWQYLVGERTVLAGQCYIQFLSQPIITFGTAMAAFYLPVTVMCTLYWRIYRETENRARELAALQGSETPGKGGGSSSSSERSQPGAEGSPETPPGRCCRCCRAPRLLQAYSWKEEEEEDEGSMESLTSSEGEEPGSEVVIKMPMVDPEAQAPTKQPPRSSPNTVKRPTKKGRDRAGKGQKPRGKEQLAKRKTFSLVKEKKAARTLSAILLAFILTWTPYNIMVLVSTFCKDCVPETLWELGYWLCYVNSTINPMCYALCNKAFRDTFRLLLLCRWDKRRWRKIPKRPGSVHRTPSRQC
- Protocol details: Alphascreen Surefire phospho-ERK1/2 functional assay, M1
- Type: cell-based
- Assay context: CHO, read-out: % Emax cf. ACh, M1, CHO cells stably expressing human M1; relative to ACh
Just the number in %, nothing appended.

Known Emax results, listed for orientation:
CCOC(=O)N1CCC2(CC(N3CCC(c4nccn4CC(=O)NC)CC3)C2)C1 (single isomer, unassigned) [1-54 Isomer 2]    51
[2H]C([2H])([2H])COC(=O)N1CCC2(CC(N3CCC(c4ccnn4C)CC3)C2)C1 (single isomer, unassigned) [1-72 Isomer 2]    17

# input What does the record list as Emax for CCOC(=O)N1CCC2(CC(N3CCC(N4CCN(C)C4=O)CC3)C2)C1 (single isomer, unassigned) [2-125 Isomer 2] ?
# output 32
